Provenance of the data: the supplement of paper PMC10567573

B1: TMEM175 (parent)
chain: ALLHQAETLQPSVWFGGREHVLMF

Variants of: B1
Test: protein stability index of a GFP-peptide fusion (GPS, HEK-293T) (PSI 1-6); higher = more stable;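 further: lentivirally expressed fusions sorted by FACS into six bins by GFP to DsRed ratio, PSI derived from sequencing read proportions per bin multiplied by bin number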
Settings: c terminus: a fixed tail appended
measured quantity: protein stability index
Respond with the number and no other words.

// solved cases for protein stability index follow
- sequence data: "ALLHQAETLQPSVWFGIREHVLMF [G17I]"
  val: 2.68
- sequence data: "ALLHQAETLQPSVWFHGREHVLMF [G16H]"
  val: 2.1
- sequence data: "ALLHQAETLQPSVWFCGREHVLMF [G16C]"
  val: 2.98
- sequence data: "ALLHQAETLQPSVGFGGREHVLMF [W14G]"
  val: 2.64
- sequence data: "KLLHQAETLQPSVWFGGREHVLMF [A1K]"
  val: 2.35

Please supply the value of reported protein stability index for the item ALLHQAETCQPSVWFGGREHVLMF [L9C]
3.64

Please supply the value of reported protein stability index for the item ALLHQAETLQPSVWFGGREHGLMF [V21G]
2.89

Please supply the value of reported protein stability index for the item ALLHQAETLQPSVWFGGHEHVLMF [R18H]
2.17
